Molecular target: Bile acid receptor (Homo sapiens)
Assay: Transactivation of human FXR expressed in human HeLa cells incubated for 24 hrs by luciferase reporter gene assay relative to GW4064
Assay type: cell-based
readout_name: max activation
The answer consists of two parts: a number and, after it, its unit.

// below: answered molecules
Lab book: max activation of O=C(O)Cc1cccc(NC(=O)c2ccccc2NC(=O)c2ccc3ccccc3c2)c1 noted as 20.9%

Lab book: max activation of CC(C)(C)c1ccc(C(=O)Nc2ccccc2C(=O)Nc2cc(C(=O)O)ccc2Cl)cc1 noted as 16%

Noted for O=C(O)c1cccc(NC(=O)c2ccccc2NC(=O)c2ccc3c(c2)OCO3)c1 : its max activation reads 12%

// max activation lookup, molecule = O=C(O)Cc1cccc(NC(=O)c2ccccc2NC(=O)c2ccc(-c3ccccc3)cc2)c1 , result: 18.8%

New cases:
Item: COc1ccc(NC(=O)c2ccccc2NC(=O)c2ccc(C(C)(C)C)cc2)cc1C(=O)O | max activation: 19%

====

Molecular target: Peroxisome proliferator-activated receptor gamma (Homo sapiens)
Test: Transactivation of Gal4-tagged PPARgamma ligand binding domain (unknown origin) expressed in COS7 cells measured after overnight incubation by luciferase reporter gene assay relative to piaglitazone
Format: cell-based
Settings: Chlorocebus aethiops; COS-7
readout_name: max activation
In your response, put the unit directly after the numeric value.

max activation reported for this compound CC(C)(C)c1ccc(C(=O)Nc2ccccc2C(=O)Nc2cccc(CCC(=O)O)c2)cc1 : 175%

***
The reported value for O=C(O)CCCNC(=O)c1ccccc1NC(=O)c1cccc2ccccc12 in terms of max activation is 397%

Summary for this compound, O=C(O)Cc1cccc(NC(=O)c2ccccc2NC(=O)c2ccc(C(F)(F)F)cc2)c1 : max activation is 161%

Consider O=C(O)CCCCNC(=O)c1ccccc1NC(=O)c1ccc2ccccc2c1 . Its measured max activation is 269%

Entry under test: O=C(O)Cc1cccc(NC(=O)c2ccccc2NC(=O)c2ccc3ccccc3c2)c1 . Its max activation was 335%

Measured max activation, O=C(O)c1cccc(NC(=O)c2ccccc2NC(=O)c2ccc(C(F)(F)F)c(F)c2)c1 : 240%

Noted for O=C(O)CCCNC(=O)c1ccccc1NC(=O)c1cccc(-c2ccccc2)c1 : its max activation reads 229%

// sample O=C(O)Cc1cccc(NC(=O)c2ccccc2NC(=O)c2ccc(-c3ccccc3)cc2)c1 , its max activation was 125%

The reported max activation of the compound O=C(O)CCCNC(=O)c1ccccc1NC(=O)c1ccc2ccccc2c1 was 432%

response.value for Cc1ccc(NC(=O)c2ccccc2NC(=O)c2ccc(C(C)(C)C)cc2)cc1C(=O)O (field: max activation) = 98%

====

Target: Peroxisome proliferator-activated receptor alpha (Homo sapiens, UniProt Q07869)
Sequence (Q07869 whole entry): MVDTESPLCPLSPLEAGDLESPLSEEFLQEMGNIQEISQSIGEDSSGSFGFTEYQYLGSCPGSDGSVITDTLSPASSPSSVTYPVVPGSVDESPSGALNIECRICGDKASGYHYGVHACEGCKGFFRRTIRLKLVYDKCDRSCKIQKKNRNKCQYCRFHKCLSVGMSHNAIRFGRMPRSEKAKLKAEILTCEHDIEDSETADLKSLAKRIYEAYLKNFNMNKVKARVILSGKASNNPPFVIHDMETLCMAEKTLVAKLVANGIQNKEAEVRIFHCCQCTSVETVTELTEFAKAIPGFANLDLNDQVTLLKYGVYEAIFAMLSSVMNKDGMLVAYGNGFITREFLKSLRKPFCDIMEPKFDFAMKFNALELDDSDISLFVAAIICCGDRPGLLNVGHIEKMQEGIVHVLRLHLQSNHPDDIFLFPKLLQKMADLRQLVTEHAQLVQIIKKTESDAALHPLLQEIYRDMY
Test: Transactivation of Gal4-tagged PPARalpha ligand binding domain (unknown origin) expressed in COS7 cells measured after overnight incubation by luciferase reporter gene assay
So basically: is EC50 under 4 µM? Then t. Not under? Then f.

Task: Please state whether EC50 is below 4 µM for CC(C)(C)c1ccc(C(=O)Nc2ccccc2C(=O)Nc2cccc(CC(=O)O)c2)cc1
Result: f

Task: Hello, is EC50 of the following molecule strictly smaller than 4 µM? CC(C)(C)c1ccc(C(=O)Nc2ccccc2C(=O)Nc2cccc(CCC(=O)O)c2)cc1
Result: f

Task: Dear reviewer, please state whether O=C(O)CCc1cccc(NC(=O)c2ccccc2NC(=O)c2ccc(C(F)(F)F)cc2)c1 has EC50 strictly beneath 4 µM.
Result: f

Task: Dear colleague, could you confirm whether EC50 of CC(C)(C)c1ccc(C(=O)Nc2ccccc2C(=O)Nc2cccc(C(=O)O)c2)cc1 falls below 4 µM? Thanks.
Result: t

Task: Would you kindly verify if EC50 of CC(C)(C)c1ccc(C(=O)Nc2ccccc2C(=O)Nc2ccc(Cl)c(C(=O)O)c2)cc1 is strictly less than 4 µM?
Result: f

Next:
Task: Consider COc1ccc(NC(=O)c2ccccc2NC(=O)c2ccc(C(C)(C)C)cc2)cc1C(=O)O . Does its EC50 lie strictly below 4 µM?
Result: t

Task: Problem: For the molecule O=C(O)c1cccc(NC(=O)c2ccccc2NC(=O)c2ccc(C(F)(F)F)c(F)c2)c1 , is EC50 under 4 µM?
Result: t

Task: Lab note: EC50 threshold 4 µM. Does this molecule come in strictly under it? CSc1ccc(C(=O)Nc2ccccc2C(=O)Nc2cccc(CC(=O)O)c2)cc1
Result: f

Task: Decide: EC50 of O=C(O)Cc1cccc(NC(=O)c2ccccc2NC(=O)c2ccc3ccccc3c2)c1 strictly below 4 µM?
Result: f
